Target: Stp1 (UniProt B3LFK1)
Sequence: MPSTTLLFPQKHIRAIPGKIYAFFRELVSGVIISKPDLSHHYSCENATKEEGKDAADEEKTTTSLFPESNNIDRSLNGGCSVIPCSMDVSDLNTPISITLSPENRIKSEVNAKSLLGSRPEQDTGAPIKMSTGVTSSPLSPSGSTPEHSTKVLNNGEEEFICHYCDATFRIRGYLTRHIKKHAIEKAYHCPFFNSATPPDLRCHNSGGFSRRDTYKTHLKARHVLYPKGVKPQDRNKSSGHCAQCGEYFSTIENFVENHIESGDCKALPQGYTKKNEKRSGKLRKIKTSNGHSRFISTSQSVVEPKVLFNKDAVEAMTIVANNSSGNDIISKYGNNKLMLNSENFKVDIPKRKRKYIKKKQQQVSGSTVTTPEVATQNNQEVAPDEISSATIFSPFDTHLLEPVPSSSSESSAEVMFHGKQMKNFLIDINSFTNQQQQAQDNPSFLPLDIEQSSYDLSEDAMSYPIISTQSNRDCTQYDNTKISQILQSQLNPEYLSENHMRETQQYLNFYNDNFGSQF
Assay: PBM E-score (8-mer binding enrichment) (E-score (-0.5 to 0.5)); higher = stronger / more preferred TF binding
Details: protein concentration: 200 nM; construct: GST-full length
Whole data set: some 33,000 sequences, median “E-score (-0.5 to 0.5)” near -0.016, cut for the highest 2% near 0.32. This excerpt belongs to a sample that is enriched for the highest values.
quantity: PBM E-score
Enter the number alone.

Example entries begin here.
> print(dat)
   macromolecule.sequence     quantity  observed
1                CATTGCCA  PBM E-score   -0.0509
2                CCACGGCA  PBM E-score      0.46
3                AAGGACCG  PBM E-score    -0.117
4                GAAAGGAC  PBM E-score    0.0713
5                CCCTTGCA  PBM E-score    -0.163

GET /values?readout=PBM E-score&item= ATCCGTGC
0.41

Moving on to AGCCGCGC
0.424

Moving on to ATTGCGCG
0.32

Moving on to CAGGAGCC
-0.0638

Moving on to ATTACTTC
-0.0579

Moving on to ATTGCGCC
0.308

Moving on to CAGAGGTA
0.062

Moving on to AGCCGAGG
0.142

Moving on to GGGCGAGA
-0.132

Recorded values, source the supplement of paper PMC3334620.
